Numbers sourced from patent US6372297B1.

Tested on: molds and blue-stain fungi
Experiment: In vitro activity against molds and blue-stain fungi, poison plate assay (MIC)
Type: cell-based
Conditions: P. variotii, malt extract agar, complete inhibition
Quantity Kind: MIC (ppm) against P. variotii
Number in ppm, nothing else.

[
  {
    "Compound": "[O-][S+]1CCON=C1c1cc2ccccc2s1 (centres unmarked) [Compound 87]",
    "MIC (ppm) against P. variotii": 10
  },
  {
    "Compound": "N#Cc1ccc(C2=NOCCS2(=O)=O)s1 [Compound 58]",
    "MIC (ppm) against P. variotii": 25
  },
  {
    "Compound": "N#Cc1ccc(C2=NOCC[S+]2[O-])s1 (centres unmarked) [Compound 57]",
    "MIC (ppm) against P. variotii": 25
  }
]

Now let's try a different one.
Return reported MIC (ppm) against P. variotii; argument: C[S+]1CCON=C1c1cc(Cl)cc(Cl)c1 (centres unmarked) [Compound 19] 25

* * *

Each record here notes measured Surface score of treated mini-boards, 3 week incubation, 2500 ppm.
System: mixed spore suspension: Aureobasidium pullulans, Aspergillus amstelodami, Ceratocystis pilifera, Cladosporium sp., Penicillium sp., Sclerophomas entoxylina …
Assay: Control of molds and sapstain fungi in mini-board test
Parameters: key: 0: Free of fungal growth; 1: Traces of fungal growth; 2: Little fungal growth; 3: Moderate fungal growth; 4: Vigorous to maximum growth (all surfaces covered with fungal growth)
Settings: 2500 ppm; 3 week incubation
Respond with the number and no other words.

Field request: Surface score of treated mini-boards, 3 week incubation, 2500 ppm | item: [O-][S+]1CCON=C1c1ccsc1 (stereo not drawn) [Compound 79] 0

// returns reported Surface score of treated mini-boards, 3 week incubation, 2500 ppm for input O=S1(=O)CCON=C1c1ccc(Br)s1 [Compound 38] 0.4

GET /values?readout=Surface score of treated mini-boards, 3 week incubation, 2500 ppm&item= Cc1ccc(C2=NOCC[S+]2[O-])s1 (stereo not drawn) [Compound 48] 0

* * *

System: mixed spore suspension: Aureobasidium pullulans, Aspergillus amstelodami, Ceratocystis pilifera, Cladosporium sp., Penicillium sp., Sclerophomas entoxylina …
Experiment: Control of molds and sapstain fungi in mini-board test
Conditions: 1500 ppm; 6 week incubation
Each record here notes measured Surface score of treated mini-boards, 6 week incubation, 1500 ppm.
# print the numeric value only

[
  {
    "Compound": "Cc1ccc(C2=NOCC[S+]2[O-])s1 (centres unmarked) [Compound 48]",
    "Number": 1.4
  }
]

What does the record list as Surface score of treated mini-boards, 6 week incubation, 1500 ppm for [O-][S+]1CCON=C1c1ccsc1 (centres unmarked) [Compound 79] ? 3.0

Which Surface score of treated mini-boards, 6 week incubation, 1500 ppm is reported for this compound? O=S1(=O)CCON=C1c1ccc(Br)s1 [Compound 38] 2.0

Given [O-][S+]1CCON=C1c1cc(Br)cs1 (centres unmarked) [Compound 41] , state its recorded Surface score of treated mini-boards, 6 week incubation, 1500 ppm. 2.4

// Surface score of treated mini-boards, 6 week incubation, 1500 ppm lookup, key: Cc1ccc(C2=NOCCS2(=O)=O)s1 [Compound 49] 1.8

Dear colleague, I am looking for the recorded Surface score of treated mini-boards, 6 week incubation, 1500 ppm of the following compound: Cc1ccsc1C1=NOCCS1(=O)=O [Compound 37] 0.8

Requested field: Surface score of treated mini-boards, 6 week incubation, 1500 ppm. Item: O=S1(=O)CCON=C1c1cc(Br)cs1 [Compound 42] 2.0

Query (compound): [O-][S+]1CCON=C1c1ccc(Br)s1 (centres unmarked) [Compound 36] ; field requested: Surface score of treated mini-boards, 6 week incubation, 1500 ppm 2.6

// query Surface score of treated mini-boards, 6 week incubation, 1500 ppm value for entry O=S1(=O)CCON=C1c1cccs1 [Compound 34] 2.4

Please look up its Surface score of treated mini-boards, 6 week incubation, 1500 ppm: [O-][S+]1CCON=C1c1cccs1 (centres unmarked) [Compound 8] 0.8

Fill blank: measured Surface score of treated mini-boards, 6 week incubation, 1500 ppm of the compound O=S1(=O)CCON=C1c1ccsc1 [Compound 78] is ____. 1.2

* * *

System: molds and blue-stain fungi
Assay: In vitro activity against molds and blue-stain fungi, poison plate assay (MIC)
Assay type: cell-based
Settings: T. viride, malt extract agar, complete inhibition
Quantity Kind: MIC (ppm) against T. viride
Just the number in ppm, nothing appended.

If you can, please state the reported MIC (ppm) against T. viride value of [O-][S+]1CCON=C1c1ccc(Cl)c(Cl)c1 (stereo not shown) [Compound 4] . 25

* * *

Here, each record is paired with measured melting point data.

[
  {
    "Compound": "CC1C[S+]([O-])C(c2cccs2)=NO1 (stereo not shown) [Compound 50]",
    "melting point": "114 to 115 °C"
  }
]

Reported melting point, compound O=S1(=O)CCON=C1c1ccc(Cl)s1 [Compound 61] : ____ 113 to 114 °C

Looking for the measured melting point of CC1CSC(c2cccs2)=NO1 (stereo not shown) [Compound 52] , can you help? 70 to 72 °C

# lookup: melting point of Clc1ccc(C2=NOCCS2)s1 [Compound 59] 74 to 77 °C

* * *

Tested on: Coniophora puteana
Experiment: Wood preservative efficacy against fungi, agar plate colony diameter
Type: cell-based
Set-up: key: 0 = no fungal growth, 1-3 = 25/50/75% of untreated, 4 = equal
Details: 10 ppm, Table 6B
Each item that follows carries a reported Score of fungicidal activity, C. PUTEANA.
// no unit, no text: just the number

In the examples that follow, each entry is paired with its recorded Score of fungicidal activity, C. PUTEANA.
[
  {
    "Compound": "CCOC(=O)c1ccc(C2=NOCC[S+]2[O-])cc1 (stereo not drawn)",
    "Number": 0
  },
  {
    "Compound": "COC(=O)c1cccc(C2=NOCC[S+]2[O-])c1 (stereo not drawn)",
    "Number": 4
  },
  {
    "Compound": "C[S+]1CCON=C1c1ccc(C(F)(F)F)cc1 (stereo not drawn)",
    "Number": 0
  }
]

What does the record list as Score of fungicidal activity, C. PUTEANA for C[S+]1CCON=C1c1ccccc1 (stereo not drawn) ? 4

State the recorded Score of fungicidal activity, C. PUTEANA for this entry: CCOc1ccc(C2=NOCC[S+]2C)cc1 (stereo not drawn) 0

* * *

Test system: Aureobasidium pullulans
Assay: Wood preservative efficacy against fungi, agar plate colony diameter
Format: cell-based
Set-up: key: 1=25%, 2=50%, 3=75%, 4=100% of untreated growth; lower better
Settings: 10 ppm, Table 6B
Quantity Kind: Score of fungicidal activity, A. PULLULANS
Simply state the number, no unit and no words.

Here are 2 compounds together with their reported answers.
[
  {
    "Compound": "CCOC(=O)c1ccc(C2=NOCC[S+]2[O-])cc1 (centres unmarked)",
    "Number": 4
  },
  {
    "Compound": "COC(=O)c1cccc(C2=NOCC[S+]2[O-])c1 (centres unmarked)",
    "Number": 4
  }
]

Now look at this entry.
Which Score of fungicidal activity, A. PULLULANS is reported for this compound? CCOc1ccc(C2=NOCC[S+]2C)cc1 (centres unmarked) 4

* * *

System: Trichoderma viride
Assay: Control of molds and blue stain fungi in stick test (beech sticks)
Details: minimum concentration producing a score less than or equal to 1; dosages 250-5000 ppm
Each entry below lists one item and its recorded Threshold value in stick test, TRICHODERMA VIRIDE value.

Solved entries:
[
  {
    "Compound": "C[S+]1CCON=C1c1ccc(Cl)cc1 (centres unmarked)",
    "Result": "2500-5000 ppm"
  },
  {
    "Compound": "C[S+]1CCON=C1c1ccc(C(F)(F)F)cc1 (centres unmarked)",
    "Result": "<250 ppm"
  },
  {
    "Compound": "[O-][S+]1CCON=C1c1cccs1 (centres unmarked)",
    "Result": "500-1000 ppm"
  },
  {
    "Compound": "[O-][S+]1CCON=C1c1ccc(Cl)c(Cl)c1 (centres unmarked)",
    "Result": "500-1000 ppm"
  }
]

Then this compound:
# returns recorded Threshold value in stick test, TRICHODERMA VIRIDE (system: Trichoderma viride) for C[S+]1CCON=C1c1cc(Cl)cc(Cl)c1 (centres unmarked) <250 ppm

* * *

Measured MIC (ppm) against S. atra of individual entries
System: molds and blue-stain fungi
Assay: In vitro activity against molds and blue-stain fungi, poison plate assay (MIC)
Assay type: cell-based
Details: S. atra, malt extract agar, complete inhibition
// note: answer is a bare numeric in ppm

Examples with answers:
[
  {
    "Compound": "C[S+]1CCON=C1c1cc(Cl)cc(Cl)c1 (centres unmarked) [Compound 19]",
    "Number": 25
  },
  {
    "Compound": "O=S1(=O)CCON=C1c1cccs1 [Compound 34]",
    "Number": 5
  }
]

Form field: reported MIC (ppm) against S. atra of [O-][S+]1CCON=C1c1cccs1 (centres unmarked) [Compound 8] 10

Consider the compound shown here: N#Cc1ccc(C2=NOCCS2(=O)=O)s1 [Compound 58] What is its recorded MIC (ppm) against S. atra? 5
